Taken from patent EP0395312B1.

Test system: α1 sites
measurementDescription: Affinity for α1 sites (procedure of Morrow et al)
Format: binding
reportedConditions: read-out: Affinity for α1 site IC50
endpointLabel: IC50 (nM)
# output: bare number, implied unit nM

Sample answers from the record:
compound	experimentalValue
COc1ccccc1N1CCN(CC(C(=O)N2CCCC2)c2ccccc2)CC1 (stereo not drawn) [Example 32]	851
COc1ccccc1N1CCN(CC(C(=O)NCCN2C(=O)CC3(CCCC3)CC2=O)c2ccccc2)CC1 (stereo not drawn) [Example 21]	1200

Incoming: Would you kindly share the measured IC50 for CCOC(=O)N[C@H](CN1CCN(c2ccccc2OC)CC1)c1ccccc1 [Example 41] ?
Outgoing: 2850

----------
target: D2 receptor sites (Homo sapiens)
Sequence (P14416 whole entry): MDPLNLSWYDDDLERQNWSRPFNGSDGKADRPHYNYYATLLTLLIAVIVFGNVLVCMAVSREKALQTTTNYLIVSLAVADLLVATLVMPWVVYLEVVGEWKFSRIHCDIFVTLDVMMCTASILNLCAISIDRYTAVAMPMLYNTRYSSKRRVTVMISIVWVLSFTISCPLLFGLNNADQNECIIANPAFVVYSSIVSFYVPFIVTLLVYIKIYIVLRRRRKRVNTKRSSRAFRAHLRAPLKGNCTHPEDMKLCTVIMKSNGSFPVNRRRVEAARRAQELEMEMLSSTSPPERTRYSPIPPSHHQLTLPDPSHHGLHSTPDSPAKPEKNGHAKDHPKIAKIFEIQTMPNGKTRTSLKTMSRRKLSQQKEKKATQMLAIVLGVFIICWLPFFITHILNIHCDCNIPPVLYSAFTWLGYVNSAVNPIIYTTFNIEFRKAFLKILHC
measurementDescription: Affinity for D2 receptor sites (procedure of Hancock et al)
reportedConditions: read-out: Affinity for D2 site IC50
endpointLabel: pIC50
Scale explanation: pIC50 corresponds to minus log10 of a concentration expressed in moles per litre.

Incoming: Look up pIC50 for this molecule: COc1ccccc1N1CCN(CC(C(=O)NC2CCCCC2)c2ccccc2)CC1 (centres unmarked) [Example 19]
Outgoing: 5.20

----------
target: 5-HT1A receptor (Rattus norvegicus, UniProt P19327)
Construct: rat hippocampal membrane homogenate; from tissue; host or cells: rat hippocampus membrane homogenate
Sequence (P19327 whole entry): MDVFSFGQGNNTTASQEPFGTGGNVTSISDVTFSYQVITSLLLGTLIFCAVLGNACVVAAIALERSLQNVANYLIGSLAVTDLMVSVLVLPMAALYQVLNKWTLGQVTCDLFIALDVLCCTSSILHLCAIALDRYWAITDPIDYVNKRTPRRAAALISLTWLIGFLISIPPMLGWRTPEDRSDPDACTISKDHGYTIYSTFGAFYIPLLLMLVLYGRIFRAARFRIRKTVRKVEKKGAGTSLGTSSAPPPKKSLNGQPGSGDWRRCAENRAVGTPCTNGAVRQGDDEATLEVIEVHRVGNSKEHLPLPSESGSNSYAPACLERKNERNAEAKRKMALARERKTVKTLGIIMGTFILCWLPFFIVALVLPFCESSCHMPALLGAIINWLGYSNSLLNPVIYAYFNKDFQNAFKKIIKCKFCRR
measurementDescription: 5-HT1A receptor binding activity in rat hippocampal membrane homogenate
reportedConditions: 5-HT1A receptor binding, rat hippocampal membrane homogenate; read-out: IC50
Experimental: The compounds of the invention were tested for 5-HT1A receptor binding activity in rat hippocampal membrane homogenate by the method of B S Alexander and M D Wood, J Pharm Pharmarol, 1988, 40, 888-891.
endpointLabel: IC50 (nM)
Give the number; nM is assumed, so skip it.

molecule	target	readoutUnit	experimentalValue
COc1ccccc1N1CCN(CC(C(=O)N2CCCCC2)c2ccccc2)CC1 (stereo not drawn)	5-HT1A receptor (Rattus norvegicus, UniProt P19327)	nM	8
COc1ccccc1N1CCN(CC(C(=O)OCC(C)C)c2ccccc2)CC1 (stereo not drawn)	5-HT1A receptor (Rattus norvegicus, UniProt P19327)	nM	46
COc1ccccc1N1CCN(CC(C(=O)N2CCCC2)c2ccccc2)CC1 (stereo not drawn)	5-HT1A receptor (Rattus norvegicus, UniProt P19327)	nM	21
COc1ccccc1N1CCN(CC(C(=O)NCc2ccccc2)c2ccccc2)CC1 (stereo not drawn)	5-HT1A receptor (Rattus norvegicus, UniProt P19327)	nM	59
CCOC(=O)C(Cc1ccccc1)CN1CCN(c2ccccc2OC)CC1 (stereo not drawn)	5-HT1A receptor (Rattus norvegicus, UniProt P19327)	nM	25
O=C(NC1CCCCC1)C(CN1CCN(c2ncccn2)CC1)c1ccccc1 (stereo not drawn)	5-HT1A receptor (Rattus norvegicus, UniProt P19327)	nM	75

Incoming: What measured IC50 goes with CNC(=O)C(CN1CCN(c2ccccc2OC)CC1)c1ccccc1 (stereo not drawn) [Example 8, methylamide] ?
Outgoing: 45

Incoming: Fill in: IC50 of COC(=O)C(CN1CCN(c2ccccc2OC)CC1)c1ccccc1 (stereo not drawn) is ___
Outgoing: 37

Incoming: Recorded IC50 for COc1ccccc1N1CCN(CC(C(=O)NC2CC2)c2ccccc2)CC1 (stereo not drawn) [Example 31, cyclopropyl-amide] , please?
Outgoing: 28

----------
Known IC50 of a selection of molecules
System: α1 sites
measurementDescription: Affinity for α1 sites (procedure of Morrow et al)
Assay type: binding
reportedConditions: read-out: Affinity for α1 site IC50
# number only, unit nM dropped from output

molecule	target	endpointLabel	readoutUnit	experimentalValue
COC(=O)C(CN1CCN(c2ccccc2OC)CC1)c1ccccc1 (centres unmarked)	α1 sites	IC50	nM	988
COc1ccccc1N1CCN(CC(C(=O)N(C)C)c2ccccc2)CC1 (centres unmarked)	α1 sites	IC50	nM	1230
COc1ccccc1N1CCN(CC(C(=O)OCC(C)C)c2ccccc2)CC1 (centres unmarked)	α1 sites	IC50	nM	1090

Lab note: next molecule to report on.
Incoming: Which measured IC50 value corresponds to COc1ccccc1N1CCN(C[C@@H](NC(=O)C2CCCCC2)c2ccccc2)CC1 ?
Outgoing: 7310
